# Tested on: rhinovirus B14
# PROCEDURE_DETAILS: Antiviral activity against HRV14 with 3C protease T143P mutation infected in human H1-HeLa cells assessed as virus-induced cytopathic effect after 3 days by XTT assay
# Type: functional, organism-based
# COND: Rhinovirus B, 72 h
pEC50: −log10 of the molar value.
ATTRIBUTE_MEASURED: pEC50

CCOC(=O)/C=C/[C@H](C[C@@H]1CCNC1=O)NC(=O)[C@@H](CC(=O)[C@@H](NC(=O)c1cc(C)on1)C(C)C)Cc1ccc(F)cc1
7.82

* * *

# Test system: rhinovirus B14
# PROCEDURE_DETAILS: Antiviral activity against HRV14 with 3C protease T129A, T131A, Y139H, T143P mutation infected in human H1-HeLa cells assessed as virus-induced cytopathic effect after 3 days by XTT assay
# Type: functional, organism-based
# COND: Rhinovirus B, 72 h
ATTRIBUTE_MEASURED: EC50 (µM)

CCOC(=O)/C=C/[C@H](C[C@@H]1CCNC1=O)NC(=O)[C@@H](CC(=O)[C@@H](NC(=O)c1cc(C)on1)C(C)C)Cc1ccc(F)cc1 [RUPINTRIVIR]
0.268

* * *

# System: rhinovirus B14
# PROCEDURE_DETAILS: Antiviral activity against HRV14 with 3C protease A121A/V, T129A, T131A, T143P, Y139Y/H mutation infected in human H1-HeLa cells assessed as virus-induced cytopathic effect after 11 passages for 65 days by XTT assay
# Assay type: functional, organism-based
# COND: Rhinovirus B
pEC50: −log10 of the molar value.
ATTRIBUTE_MEASURED: pEC50

CCOC(=O)/C=C/[C@H](C[C@@H]1CCNC1=O)NC(=O)[C@@H](CC(=O)[C@@H](NC(=O)c1cc(C)on1)C(C)C)Cc1ccc(F)cc1
6.47

The measured values listed here are drawn from ChEMBL document CHEMBL1151438.
